The reported numbers originate from ChEMBL document CHEMBL1136991.

Molecular target: Serine/threonine-protein kinase B-raf (Homo sapiens, UniProt P15056, V600E)
Sequence (P15056 2-766 V600E limits assumed): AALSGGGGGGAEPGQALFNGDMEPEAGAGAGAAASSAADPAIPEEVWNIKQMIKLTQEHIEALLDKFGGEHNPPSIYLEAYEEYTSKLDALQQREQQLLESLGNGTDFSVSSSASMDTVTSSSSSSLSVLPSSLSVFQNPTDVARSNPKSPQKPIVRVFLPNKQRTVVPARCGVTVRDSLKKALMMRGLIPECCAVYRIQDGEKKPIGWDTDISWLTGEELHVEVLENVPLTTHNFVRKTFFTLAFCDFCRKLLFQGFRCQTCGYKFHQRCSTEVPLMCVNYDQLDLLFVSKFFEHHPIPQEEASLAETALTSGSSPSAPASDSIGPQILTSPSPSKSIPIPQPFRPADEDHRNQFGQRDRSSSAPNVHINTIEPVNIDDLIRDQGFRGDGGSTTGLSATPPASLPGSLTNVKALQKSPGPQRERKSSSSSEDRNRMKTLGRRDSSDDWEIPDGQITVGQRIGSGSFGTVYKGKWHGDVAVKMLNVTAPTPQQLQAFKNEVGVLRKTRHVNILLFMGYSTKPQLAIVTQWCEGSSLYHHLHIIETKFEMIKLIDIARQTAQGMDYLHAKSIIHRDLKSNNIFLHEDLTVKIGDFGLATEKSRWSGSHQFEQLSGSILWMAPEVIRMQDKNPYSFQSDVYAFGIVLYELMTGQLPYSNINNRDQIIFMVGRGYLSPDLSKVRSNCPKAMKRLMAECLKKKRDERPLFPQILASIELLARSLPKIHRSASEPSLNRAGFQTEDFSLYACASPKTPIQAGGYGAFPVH
Assay: Inhibition of BRAF V600E mutant-mediated ERK phosphorylation in human WM266.4 cells
Format: cell-based
reported.metric: log10 of IC50 (log10 of the value in µM)
Field: value | Transform: log10 | Quantity: IC50 | Unit: µM

Solved cases below.
Cn1c(=O)[nH]c2nccc(Oc3ccc(NC(=O)c4cccc(OC(F)(F)F)c4)c4ccccc34)c21: 1.49
COc1cc(NC(=O)Nc2cccc(C(F)(F)F)c2)ccc1Oc1ccnc2[nH]c(=O)[nH]c12: 1.47
O=C(Nc1cccc(F)c1)Nc1ccc(Oc2ccnc3[nH]c(=O)[nH]c23)c2ccccc12: -0.67
O=C(Nc1ccc(Oc2ccnc3[nH]c(=O)[nH]c23)cc1)Nc1ccc(Cl)c(C(F)(F)F)c1: 0.38
O=C(Nc1ccc(Cl)c(C(F)(F)F)c1)Nc1ccc(Oc2ccnc3[nH]c(=O)[nH]c23)c2ccccc12: -0.25
Cc1c(NC(=O)Nc2ccc(Cl)c(C(F)(F)F)c2)ccc(Oc2ccnc3[nH]c(=O)[nH]c23)c1C: 0.59
CC(C)(C)c1cccc(NC(=O)Nc2ccc(Oc3ccnc4[nH]c(=O)[nH]c34)c3ccccc23)c1: 1.29
Cn1c(=O)[nH]c2nccc(Oc3ccc(NC(=O)Nc4cccc(SC(F)(F)F)c4)c4ccccc34)c21: 0.16

Parameters: items (list). Returns: log10 of IC50 for each item.
1. Cc1cc(NC(=O)Nc2ccc(Cl)c(C(F)(F)F)c2)ccc1Oc1ccnc2[nH]c(=O)[nH]c12
2. O=C(Nc1cccc(C(F)(F)F)c1)Nc1ccc(Oc2ccnc3[nH]c(=O)[nH]c23)cc1F

Ans:
1: 1.77; 2: 0.54
